# Test system: SK-MEL-28
# TEST_DESCRIPTION: NCI tumour cell line growth inhibition, 48 h
The source made the active and inactive calls. No stated cut-off is given here; in the data, active = GI50 up to about 1.1 µM and inactive = higher.
Possible outcomes: active, inactive

> print(dat)
                                   molecule  label.class
1  Nc1nc(SCc2ccccc2Cl)c2ncn(C3OC(CO)C(O)C3O)c2n1 (configuration not stated)     inactive
2  S=c1sc2c(n1-c1ccccc1)N=CNC2S (configuration not stated)     inactive
3  CCCCCCCCCCCCCCCCNc1nc(=O)n(C2CC(O)C(CO)O2)cc1F (configuration not stated)     inactive
4  C#C[C@]1(O)[C@@H](CO)O[C@@H](n2ccc(N)nc2=O)[C@@H]1O       active
5           c1cc(C[S+]2CCCC2)oc1C[S+]1CCCC1     inactive
6  Cc1cccc(Cn2c3c(c4cc(O)ccc42)C(=O)c2ccccc2C3=O)c1     inactive
7      O=C1c2ccccc2C(=O)N1/N=C\c1ccc(Br)cc1     inactive

###

# Tested on: DMS-273
# TEST_DESCRIPTION: NCI tumour cell line growth inhibition, 48 h
Calls of active or inactive are those of the source. Rule as the data show it: active = GI50 up to about 1.1 µM and inactive = higher.
RECORDED_ENDPOINT: GI50

> print(dat)
                                   compound  recorded.endpoint                value
1  Cc1ccc(C[P+]2(c3ccccc3)CCCCC2)cc1.[O-][Cl+3]([O-])([O-])[O-]               GI50     35 µM (inactive)
2  O=[N+]([O-])c1ccc(/C=C/c2ccc(/C=C/c3ccc([N+](=O)[O-])cc3[N+](=O)[O-])cc2)c([N+](=O)[O-])c1               GI50  > 100 µM (inactive)
3  FC1OC2OC1C(OCc1ccccc1)C(OCc1ccccc1)C2OCc1ccccc1 (stereo not drawn)               GI50  > 100 µM (inactive)

###

# System: UACC-62
# TEST_DESCRIPTION: NCI tumour cell line growth inhibition, 48 h
Active and inactive are the calls of the source. Rule as the data show it: active = GI50 up to about 1.1 µM and inactive = higher.
RECORDED_ENDPOINT: GI50

> print(dat)
                                    compound                value
 1  COC(=O)[C@@H]1C=C[C@H](OC2OC(COC(C)=O)C(OC(C)=O)C(OC(C)=O)C2OC(C)=O)n2c(=O)c3ccccc3c(=O)n21 (stereo not given in full)   9.93 µM (inactive)
 2              O=C(/C=C/c1ccccc1)CCN1CCOCC1     16 µM (inactive)
 3  COC(=O)C1=C([C@H]2COC(C)(C)O2)[C@H]2C[C@@H]1[C@@H]1OC(C)(C)O[C@@H]12  > 100 µM (inactive)
 4  CC(=O)NC(CCCN(Cc1ccccc1)C(=O)N(C)N=O)C(=O)NCc1ccccc1 (stereo not given)  > 100 µM (inactive)
 5         COC1CCC(CO)OO1 (stereo not given)   70.3 µM (inactive)
 6  CN(C)CC(C)(C)C(=O)/C=C/c1ccc(/C=C/C(=O)C(C)(C)CN(C)C)cc1   1.74 µM (inactive)
 7  COC1/C(=C\C(C)=O)c2ccccc2N1C(C)=O (stereo not given)  > 100 µM (inactive)
 8  CN1C(=O)N/C(=C\c2ccc(S(=O)(=O)NN)cc2)C1=O  > 100 µM (inactive)
 9  O=C(Cc1nc2ccccc2o1)C(=O)Nc1ccccc1C(F)(F)F  > 100 µM (inactive)
10                CC(=O)Oc1c(C)n(CCCl)ccc1=O  > 100 µM (inactive)
